# Assayed Target: GAL4-DAF-12 (Caenorhabditis elegans)
# Construct: 184-754aa (DAF-12); expressed in transfected cells; host or cells: HEK293
# Sequence (G5EFF5 184-753): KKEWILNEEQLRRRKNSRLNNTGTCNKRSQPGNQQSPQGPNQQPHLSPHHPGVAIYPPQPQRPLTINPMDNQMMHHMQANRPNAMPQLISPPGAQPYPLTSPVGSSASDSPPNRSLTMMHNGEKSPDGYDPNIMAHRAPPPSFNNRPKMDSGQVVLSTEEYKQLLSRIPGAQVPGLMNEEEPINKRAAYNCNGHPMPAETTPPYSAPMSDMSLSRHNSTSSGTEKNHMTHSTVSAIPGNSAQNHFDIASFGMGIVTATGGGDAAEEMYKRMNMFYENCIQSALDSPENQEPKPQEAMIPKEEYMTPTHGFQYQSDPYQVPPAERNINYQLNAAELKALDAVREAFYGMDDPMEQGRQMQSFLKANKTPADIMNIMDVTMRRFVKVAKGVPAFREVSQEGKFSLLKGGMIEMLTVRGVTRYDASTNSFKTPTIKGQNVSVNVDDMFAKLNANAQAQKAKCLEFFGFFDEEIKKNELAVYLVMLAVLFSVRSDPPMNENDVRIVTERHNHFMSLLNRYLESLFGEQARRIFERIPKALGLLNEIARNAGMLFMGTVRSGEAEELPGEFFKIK
# Test Description: Co-transfection assay: GAL4-DAF-12 and GAL4-responsive luciferase reporter in HEK293 cells
# Type: cell-based, C. elegans
# Measurement Setup: 10 μM sterol, without DAF-9
Recorded Metric: DAF-9 independent activation of GAL4-DAF-12 (in words)

[[record]]
compound = "C[C@@H](CO)CCC[C@@H](C)[C@H]1CC[C@H]2[C@@H]3CCC4=CC(=O)CC[C@]4(C)[C@H]3CC[C@]12C [(25R),26-hydroxy-4-cholesten-3-one]"
assayed_target = "GAL4-DAF-12 (Caenorhabditis elegans)"
result = "strongly active"

[[record]]
compound = "C[C@H](CO)CCC[C@@H](C)[C@H]1CC[C@H]2[C@@H]3CCC4=CC(=O)CC[C@]4(C)[C@H]3CC[C@]12C [(25S),26-hydroxy-4-cholesten-3-one]"
assayed_target = "GAL4-DAF-12 (Caenorhabditis elegans)"
result = "strongly active"

